Value source: ChEMBL document CHEMBL1153417

Catalogue of Activity values
Measurement notes: Electrophysiological effect in New Zealand rabbit right ventricular papillary muscle assessed as action potential duration measured at 50% repolarization at 5 uM at 1 Hz stimulation frequency
Format: functional, Oryctolagus cuniculus, Muscle tissue
Observation type: Activity (ms)

>>> quantitative_result("CCN(CC)CC(=O)N1CC(C)(C)Oc2c(C)c(C)c(Cl)c(C)c21")
171.6
>>> quantitative_result("CCOC(=O)C1(C)CN(C(=O)CN(CC)CC)c2c(C)cc(C)c(C)c2O1 (stereo unspecified)")
161.7
>>> quantitative_result("CCN(CC)CC(=O)N1CC(c2ccccc2)Oc2c(C)c(C)cc(C)c21 (stereo unspecified)")
175.6
>>> quantitative_result("CCN(CC)CC(=O)N1CCOc2c(C)c(C)cc(C)c21")
192.3
>>> quantitative_result("CCN(CC)CC(=O)N1CC(C)(C)Oc2c(C)c(C)cc(C)c21")
147.1
>>> quantitative_result("CCOC(=O)C1(C)CN(C(=O)CN(CC)CC)c2c(C)c(Cl)c(C)c(C)c2O1 (stereo unspecified)")
107.7
